Provide the reported Activity of each item.
# System: Radical scavenging activity
# testProtocol: Antioxidant activity assessed as DPPH radical scavenging activity at 12.5 uM after 30 mins by spectrophotometry
# Type: functional
Numbers only, in %.

# example entries with known answers
smilesText: CC(=O)OC[C@H]1O[C@@H](NC(=S)N/N=C/c2ccc(F)cc2)[C@H](OC(C)=O)[C@@H](OC(C)=O)[C@H]1OC(C)=O
valueUnit: %
measurement: 8.51
--
smilesText: CC(=O)OC[C@H]1O[C@@H](NC(=S)N/N=C/c2ccc(Br)cc2)[C@H](OC(C)=O)[C@@H](OC(C)=O)[C@H]1OC(C)=O
valueUnit: %
measurement: 5.38
--
smilesText: Oc1ccc(/C=C/c2cc(O)cc(O)c2)cc1
valueUnit: %
measurement: 9.13

Task: Any idea what its Activity is? The compound is CC(=O)OC[C@H]1O[C@@H](NC(=S)N/N=C/c2ccc(N(C)C)cc2)[C@H](OC(C)=O)[C@@H](OC(C)=O)[C@H]1OC(C)=O
Result: 14.3

###

# Tested on: Radical scavenging activity
# testProtocol: Antioxidant activity assessed as DPPH radical scavenging activity at 300 uM after 30 mins by spectrophotometry
# Format: functional
observationType: Activity

# example entries with known answers
smilesText: COc1cc(/C=N/NC(=S)N[C@@H]2O[C@H](COC(C)=O)[C@H](OC(C)=O)[C@H](OC(C)=O)[C@H]2OC(C)=O)ccc1O
Activity: 74%
--
smilesText: CC(=O)OC[C@H]1O[C@@H](NC(=S)N/N=C/c2ccc(Cl)cc2)[C@H](OC(C)=O)[C@@H](OC(C)=O)[C@H]1OC(C)=O
Activity: 55.4%
--
smilesText: COc1cccc(/C=N/NC(=S)N[C@@H]2O[C@H](COC(C)=O)[C@H](OC(C)=O)[C@H](OC(C)=O)[C@H]2OC(C)=O)c1
Activity: 55.1%
--
smilesText: CC(=O)OC[C@H]1O[C@@H](NC(=S)N/N=C/c2ccc(O)cc2)[C@H](OC(C)=O)[C@@H](OC(C)=O)[C@H]1OC(C)=O
Activity: 75.1%
--
smilesText: CC(=O)OC[C@H]1O[C@@H](NC(=S)N/N=C/c2ccc(C)cc2)[C@H](OC(C)=O)[C@@H](OC(C)=O)[C@H]1OC(C)=O
Activity: 65%
--
smilesText: CC(=O)OC[C@H]1O[C@@H](NC(=S)N/N=C/c2ccc(C(C)C)cc2)[C@H](OC(C)=O)[C@@H](OC(C)=O)[C@H]1OC(C)=O
Activity: 24.5%
--
smilesText: CCOc1cc(/C=N/NC(=S)N[C@@H]2O[C@H](COC(C)=O)[C@H](OC(C)=O)[C@H](OC(C)=O)[C@H]2OC(C)=O)ccc1O
Activity: 69.2%
--
smilesText: Oc1ccc(/C=C/c2cc(O)cc(O)c2)cc1
Activity: 75.6%

Need Activity for each of these compounds.
1. CC(=O)OC[C@H]1O[C@@H](NC(=S)N/N=C/c2cccc([N+](=O)[O-])c2)[C@H](OC(C)=O)[C@@H](OC(C)=O)[C@H]1OC(C)=O
2. COc1ccc(/C=N/NC(=S)N[C@@H]2O[C@H](COC(C)=O)[C@H](OC(C)=O)[C@H](OC(C)=O)[C@H]2OC(C)=O)cc1O
3. CC(=O)OC[C@H]1O[C@@H](NC(=S)N/N=C/c2ccc(N(C)C)cc2)[C@H](OC(C)=O)[C@@H](OC(C)=O)[C@H]1OC(C)=O
4. CC(=O)OC[C@H]1O[C@@H](NC(=S)N/N=C/c2ccc([N+](=O)[O-])cc2)[C@H](OC(C)=O)[C@@H](OC(C)=O)[C@H]1OC(C)=O
5. CC(=O)OC[C@H]1O[C@@H](NC(=S)N/N=C/c2ccc(F)cc2)[C@H](OC(C)=O)[C@@H](OC(C)=O)[C@H]1OC(C)=O

Result:
1. 51.2%
2. 69.6%
3. 78.5%
4. 64.5%
5. 67.2%

Task: Value wanted: Activity (Radical scavenging activity) of entry CC(=O)OC[C@H]1O[C@@H](NC(=S)N/N=C/c2ccc(Br)cc2)[C@H](OC(C)=O)[C@@H](OC(C)=O)[C@H]1OC(C)=O
Result: 44.3%

###

# Tested on: Radical scavenging activity
# testProtocol: Antioxidant activity assessed as DPPH radical scavenging activity at 50 uM after 30 mins by spectrophotometry
# Type: functional
# note: exactly 20% is not below, so it is class 0; use class 1 for Activity strictly under it

The examples below pair each entry with its known result.
smilesText: CC(=O)OC[C@H]1O[C@@H](NC(=S)N/N=C/c2ccc(F)cc2)[C@H](OC(C)=O)[C@@H](OC(C)=O)[C@H]1OC(C)=O
class: class 1
//
smilesText: CC(=O)OC[C@H]1O[C@@H](NC(=S)N/N=C/c2ccc(C)cc2)[C@H](OC(C)=O)[C@@H](OC(C)=O)[C@H]1OC(C)=O
class: class 1
//
smilesText: CC(=O)OC[C@H]1O[C@@H](NC(=S)N/N=C/c2ccc(C(C)C)cc2)[C@H](OC(C)=O)[C@@H](OC(C)=O)[C@H]1OC(C)=O
class: class 1

Task: Consider the compound CC(=O)OC[C@H]1O[C@@H](NC(=S)N/N=C/c2ccc([N+](=O)[O-])cc2)[C@H](OC(C)=O)[C@@H](OC(C)=O)[C@H]1OC(C)=O . Is its Activity strictly less than 20%?
Result: class 1

Task: Consider the compound CCOc1cc(/C=N/NC(=S)N[C@@H]2O[C@H](COC(C)=O)[C@H](OC(C)=O)[C@H](OC(C)=O)[C@H]2OC(C)=O)ccc1O . Is its Activity strictly less than 20%?
Result: class 0

Task: Consider the compound COc1ccc(/C=N/NC(=S)N[C@@H]2O[C@H](COC(C)=O)[C@H](OC(C)=O)[C@H](OC(C)=O)[C@H]2OC(C)=O)cc1O . Is its Activity strictly less than 20%?
Result: class 0

Task: Consider the compound COc1cccc(/C=N/NC(=S)N[C@@H]2O[C@H](COC(C)=O)[C@H](OC(C)=O)[C@H](OC(C)=O)[C@H]2OC(C)=O)c1 . Is its Activity strictly less than 20%?
Result: class 1

Task: Consider the compound COc1cc(/C=N/NC(=S)N[C@@H]2O[C@H](COC(C)=O)[C@H](OC(C)=O)[C@H](OC(C)=O)[C@H]2OC(C)=O)ccc1O . Is its Activity strictly less than 20%?
Result: class 0

Task: Consider the compound CC(=O)OC[C@H]1O[C@@H](NC(=S)N/N=C/c2ccc(O)cc2)[C@H](OC(C)=O)[C@@H](OC(C)=O)[C@H]1OC(C)=O . Is its Activity strictly less than 20%?
Result: class 0

Task: Consider the compound Oc1ccc(/C=C/c2cc(O)cc(O)c2)cc1 . Is its Activity strictly less than 20%?
Result: class 0

Task: Consider the compound CC(=O)OC[C@H]1O[C@@H](NC(=S)N/N=C/c2ccc(Br)cc2)[C@H](OC(C)=O)[C@@H](OC(C)=O)[C@H]1OC(C)=O . Is its Activity strictly less than 20%?
Result: class 1

Task: Consider the compound CC(=O)OC[C@H]1O[C@@H](NC(=S)N/N=C/c2ccc(Cl)cc2)[C@H](OC(C)=O)[C@@H](OC(C)=O)[C@H]1OC(C)=O . Is its Activity strictly less than 20%?
Result: class 1

Task: Consider the compound CC(=O)OC[C@H]1O[C@@H](NC(=S)N/N=C/c2ccc(N(C)C)cc2)[C@H](OC(C)=O)[C@@H](OC(C)=O)[C@H]1OC(C)=O . Is its Activity strictly less than 20%?
Result: class 0

###

# Tested on: Radical scavenging activity
# testProtocol: Antioxidant activity assessed as DPPH radical scavenging activity after 30 mins by spectrophotometry
# Format: functional
observationType: pIC50
One number for each entry, as −log10 of the molar value.

smilesText: CC(=O)OC[C@H]1O[C@@H](NC(=S)N/N=C/c2ccc(Cl)cc2)[C@H](OC(C)=O)[C@@H](OC(C)=O)[C@H]1OC(C)=O
observationType: pIC50
measurement: 3.57

Need pIC50 for each of these molecules.
1. Oc1ccc(/C=C/c2cc(O)cc(O)c2)cc1
2. COc1ccc(/C=N/NC(=S)N[C@@H]2O[C@H](COC(C)=O)[C@H](OC(C)=O)[C@H](OC(C)=O)[C@H]2OC(C)=O)cc1O
3. CC(=O)OC[C@H]1O[C@@H](NC(=S)N/N=C/c2ccc(N(C)C)cc2)[C@H](OC(C)=O)[C@@H](OC(C)=O)[C@H]1OC(C)=O
4. COc1cc(/C=N/NC(=S)N[C@@H]2O[C@H](COC(C)=O)[C@H](OC(C)=O)[C@H](OC(C)=O)[C@H]2OC(C)=O)ccc1O
5. COc1cccc(/C=N/NC(=S)N[C@@H]2O[C@H](COC(C)=O)[C@H](OC(C)=O)[C@H](OC(C)=O)[C@H]2OC(C)=O)c1
6. CCOc1cc(/C=N/NC(=S)N[C@@H]2O[C@H](COC(C)=O)[C@H](OC(C)=O)[C@H](OC(C)=O)[C@H]2OC(C)=O)ccc1O
7. CC(=O)OC[C@H]1O[C@@H](NC(=S)N/N=C/c2ccc(C)cc2)[C@H](OC(C)=O)[C@@H](OC(C)=O)[C@H]1OC(C)=O

Result:
4.03
3.74
4.25
4.12
3.56
4.15
3.69

Need pIC50 for each of these molecules.
1. CC(=O)OC[C@H]1O[C@@H](NC(=S)N/N=C/c2ccc(O)cc2)[C@H](OC(C)=O)[C@@H](OC(C)=O)[C@H]1OC(C)=O
2. CC(=O)OC[C@H]1O[C@@H](NC(=S)N/N=C/c2ccc(F)cc2)[C@H](OC(C)=O)[C@@H](OC(C)=O)[C@H]1OC(C)=O

Result:
[3.97, 3.71]
